test system: Bunya; assay: Potency by virus family (Fig. 2), Bunya; format: cell-based; settings: read-out: potency class (EC50)
pEC50: −log10 of the molar value.
measurementName: pEC50

QUERY: Return reported pEC50; argument: CCC(CC)COC(=O)[C@H](C)N[P@](=O)(OC[C@H]1O[C@@](C#N)(c2ccc3c(N)ncnn23)[C@H](O)[C@@H]1O)Oc1ccccc1
RESULT: < 5.40

---

tested on: reporter and wild-type filo-, pneumo-, and paramyxoviruses; test: organism not typed; conditions: read-out: EC50 values (range over viruses)
measurementName: EC50

QUERY: Return reported EC50; argument: CCC(CC)COC(=O)[C@H](C)N[P@](=O)(OC[C@H]1O[C@@](C#N)(c2ccc3c(N)ncnn23)[C@H](O)[C@@H]1O)Oc1ccccc1 [GS-5734]
RESULT: 3 to 790 nM

---

system: EBOV Rec. Makona-ZSG (Ebola virus); assay: in vitro; conditions: human
measurementName: selectivity ratio
Give the figure only, with no unit attached.

structure	selectivity ratio
CCC(CC)COC(=O)[C@H](C)N[P@](=O)(OC[C@H]1O[C@@](C#N)(c2ccc3c(N)ncnn23)[C@H](O)[C@@H]1O)Oc1ccccc1	714

QUERY: Return reported selectivity ratio; argument: N#C[C@@]1(c2ccc3c(N)ncnn23)O[C@H](CO)[C@@H](O)[C@H]1O
RESULT: 38

---

tested on: MV Rec. rMV^EZGFP(3) (Measles virus); assay: in vitro; details: human
# maps each entry to its selectivity ratio
Give the figure only, with no unit attached.

molecule	targetSystem	selectivity ratio
N#C[C@@]1(c2ccc3c(N)ncnn23)O[C@H](CO)[C@@H](O)[C@H]1O [Nuc]	MV Rec. rMV^EZGFP(3) (Measles virus)	50

Moving on to another molecule below.
QUERY: API: value(readout=selectivity ratio, system=MV Rec. rMV^EZGFP(3) (Measles virus)) for record CCC(CC)COC(=O)[C@H](C)N[P@](=O)(OC[C@H]1O[C@@](C#N)(c2ccc3c(N)ncnn23)[C@H](O)[C@@H]1O)Oc1ccccc1 [GS-5734]
RESULT: 224

---

tested on: EBOV Makona; assay: microbe, parasite or virus in culture; settings: Zaire ebolavirus, Huh-7
measurementName: EC50 (nM)
Give the value in nM but do not write nM after it.

QUERY: API: value(readout=EC50, system=EBOV Makona) for record N#C[C@@]1(c2ccc3c(N)ncnn23)O[C@H](CO)[C@@H](O)[C@H]1O [Nuc]
RESULT: 1020

---

tested on: TBEV Hypr (Tick-borne Encephalitis virus); assay: in vitro; details: human
measurementName: selectivity ratio
Give the figure only, with no unit attached.

QUERY: API: value(readout=selectivity ratio, system=TBEV Hypr (Tick-borne Encephalitis virus)) for record CCC(CC)COC(=O)[C@H](C)N[P@](=O)(OC[C@H]1O[C@@](C#N)(c2ccc3c(N)ncnn23)[C@H](O)[C@@H]1O)Oc1ccccc1
RESULT: 4.8

---

tested on: NiV B-2004 (Nipah virus); assay: in vitro; conditions: human
measurementName: selectivity ratio
Give the figure only, with no unit attached.

QUERY: Return reported selectivity ratio; argument: CCC(CC)COC(=O)[C@H](C)N[P@](=O)(OC[C@H]1O[C@@](C#N)(c2ccc3c(N)ncnn23)[C@H](O)[C@@H]1O)Oc1ccccc1
RESULT: 259
